assay: Anti-proliferation IC50, MRC-5; format: cell-based; conditions: human, MRC-5 cells; Table 1, compounds of formula I; NI = no inhibition up to 500 μM
Exercise: state measured IC50 for each of the molecules provided.
Give bare numbers, in µM.

These solved cases illustrate the format of a correct answer.
- molecule: "CCC1OC(=O)[C@H](C)[C@H](OC2C[C@@](C)(OC)[C@@H](O)[C@H](C)O2)[C@H](C)[C@@H](OC2O[C@H](C)C[C@H](N(C)CCCCC#Cc3ccc(-n4cc(C)ccc4=O)cc3)[C@H]2O)[C@@](C)(OC)C[C@@H](C)C(=O)[C@H](C)[C@@H](O)[C@]1(C)O (stereo partly drawn) [Compound 19d]"
  IC50 (µM): 28.9
- molecule: "CC[C@H]1OC(=O)[C@@H](C)[C@@H](O)[C@@H](C)[C@@H](O[C@H]2O[C@@H](C)C[C@@H](N(C)C)[C@@H]2OC(=O)CCCC[C@H]2CCSS2)[C@](C)(OC)C[C@@H](C)C(=O)[C@H](C)[C@H](O)[C@]1(C)O"
  IC50 (µM): 263

Please examine the following record next.
// IC50 value for CCCCOC(=O)/C=C/C(=O)N(C)[C@@H]1C[C@H](C)O[C@H](O[C@@H]2[C@H](C)[C@H](O[C@H]3C[C@@](C)(OC)[C@@H](O)[C@H](C)O3)[C@H](C)C(=O)O[C@H](CC)[C@@](C)(O)[C@@H](O)[C@@H](C)C(=O)[C@H](C)C[C@@]2(C)OC)[C@H]1O : 44.9

* * *

test system: A549; experiment: Anti-proliferation IC50, A549; type: cell-based; settings: Homo sapiens, Table 2, compounds of formula II, read-out: Anti-proliferation IC50 A549
reportedProperty: IC50

// worked examples, IC50 included
- compound: "CC[C@H]1OC(=O)[C@H](C)[C@@H](O[C@H]2C[C@@](C)(OC)[C@@H](O)[C@H](C)O2)[C@H](C)[C@@H](O[C@@H]2O[C@H](C)C[C@H](N(C)Cc3ccc(-c4cn(CCc5ccc(-n6cc(C)ccc6=O)cc5)nn4)cc3)[C@H]2O)[C@](C)(O)C[C@@H](C)CN(C)[C@H](C)[C@@H](O)[C@]1(C)O [Compound 13c]"
  IC50: "15.8 µM"
- compound: "CC[C@H]1OC(=O)[C@H](C)[C@@H](O[C@H]2C[C@@](C)(OC)[C@@H](O)[C@H](C)O2)[C@H](C)[C@@H](O[C@@H]2O[C@H](C)C[C@H](N(C)CCCC#Cc3ccc(-n4cc(C)ccc4=O)cc3)[C@H]2O)[C@](C)(O)C[C@@H](C)CN(C)[C@H](C)[C@@H](O)[C@]1(C)O [Compound 20c]"
  IC50: "42.7 µM"
- compound: "CC[C@H]1OC(=O)[C@H](C)[C@@H](O[C@H]2C[C@@](C)(OC)[C@@H](O)[C@H](C)O2)[C@H](C)[C@@H](O[C@@H]2O[C@H](C)C[C@H](N(C)CC#Cc3ccc(-n4cc(C)ccc4=O)cc3)[C@H]2O)[C@](C)(O)C[C@@H](C)CN(C)[C@H](C)[C@@H](O)[C@]1(C)O [Compound 20a]"
  IC50: "55.9 µM"

Next up:
For CC[C@@H]1OC(=O)[C@@H](C)[C@H](O[C@H]2C[C@@](C)(OC)[C@@H](O)[C@H](C)O2)[C@@H](C)[C@H](O[C@H]2O[C@@H](C)C[C@@H](N(C)C)[C@@H]2OC(=O)/C=C/C(=O)OC)C(C)(O)C[C@H](C)CN(C)[C@@H](C)[C@H](O)[C@@]1(C)O (stereo partly shown) the compound record lists IC50 as 284 µM
